Measured values drawn from paper PMC12521909 for this set.

experiment: Plasma pharmacokinetics by validated LC/MS-MS (cycle 1, day 15); type: in vivo; settings: human, oral, 75 mg, camizestrant 75 mg monotherapy, Cycle 1 Day 15, geomean
recorded endpoint: AUC
Express your answer as a number followed by its unit.

Recorded AUC of C[C@@H]1Cc2c(ccc3[nH]ncc23)[C@@H](c2ccc(NC3CN(CCCF)C3)cn2)N1CC(F)(F)F [camizestrant] , please.
862 ng·h/mL

---

assay: Plasma pharmacokinetics by validated LC/MS-MS (cycle 1, day 15); format: in vivo; details: human, oral, 150 mg, camizestrant 150 mg monotherapy, Cycle 1 Day 15, median
recorded endpoint: Tmax (h)
Answer format: numeric, h implied, no suffix.

Recorded Tmax of C[C@@H]1Cc2c(ccc3[nH]ncc23)[C@@H](c2ccc(NC3CN(CCCF)C3)cn2)N1CC(F)(F)F [camizestrant] , please.
2.17

---

assay: Plasma pharmacokinetics by validated LC/MS-MS (cycle 1, day 15); type: in vivo; conditions: human, oral, camizestrant 300 mg + palbociclib, Cycle 1 Day 15, geomean
recorded endpoint: Cmax
Express your answer as a number followed by its unit.

Recorded Cmax of C[C@@H]1Cc2c(ccc3[nH]ncc23)[C@@H](c2ccc(NC3CN(CCCF)C3)cn2)N1CC(F)(F)F [camizestrant] , please.
386 ng/mL

---

Test: Plasma pharmacokinetics by validated LC/MS-MS (cycle 1, day 15)
Type: in vivo
Conditions: human, oral, camizestrant 75 mg + abemaciclib, Cycle 1 Day 15, geomean
Experimental: Details of safety and efficacy assessments and of ctDNA sampling and assessments have been described previously ([37]). For PK analyses, plasma concentrations of camizestrant, abemaciclib, palbociclib, and ribociclib were determined using validated LC/MS-MS. Details of assessments and analysis sets have been described previously ([38]). Briefly, safety was assessed in the safety analysis set, and efficacy and antitumor activity were assessed in the evaluable-for-response set. […]
recorded endpoint: Cmax (ng/mL)
Answer format: numeric, ng/mL implied, no suffix.

Recorded Cmax of C[C@@H]1Cc2c(ccc3[nH]ncc23)[C@@H](c2ccc(NC3CN(CCCF)C3)cn2)N1CC(F)(F)F , please.
85.4

---

test: Plasma pharmacokinetics by validated LC/MS-MS (cycle 1, day 15); assay type: in vivo; settings: human, oral, 300 mg, camizestrant 300 mg monotherapy, Cycle 1 Day 15, geomean
recorded endpoint: AUC (ng·h/mL)
Answer format: numeric, ng·h/mL implied, no suffix.

Recorded AUC of C[C@@H]1Cc2c(ccc3[nH]ncc23)[C@@H](c2ccc(NC3CN(CCCF)C3)cn2)N1CC(F)(F)F , please.
4780

---

assay: Plasma pharmacokinetics by validated LC/MS-MS (cycle 1, day 15); format: in vivo; conditions: human, oral, 300 mg, camizestrant 300 mg monotherapy, Cycle 1 Day 15, geomean
recorded endpoint: Cmax
Express your answer as a number followed by its unit.

Recorded Cmax of C[C@@H]1Cc2c(ccc3[nH]ncc23)[C@@H](c2ccc(NC3CN(CCCF)C3)cn2)N1CC(F)(F)F , please.
376 ng/mL
